These entries and their values trace back to patent US11224609B2.

Reported GI50 ratio PC-3:TC-32 values follow for various compounds
system: TC-32 (Ewing sarcoma, EWS-FLI1 Type 1) cell line; settings: selectivity, GI50 in PC-3 over GI50 in TC-32
readout_type: GI50 ratio PC-3:TC-32

>  <compound>
COC(=O)C(Cc1c[nH]c2ccc(OC)cc12)NC(=O)C(OC)C1Cc2cc3cc(OC4CC(OC5CC(O)C(O)C(C)O5)C(O)C(C)O4)c(C)c(O)c3c(O)c2C(=O)C1OC1CC(OC2CC(OC3CC(C)(O)C(O)C(C)O3)C(O)C(C)O2)C(O)C(C)O1 (stereo not shown)

>  <readout_type>
GI50 ratio PC-3:TC-32

>  <quantitative_result>
0.9

$$$$
>  <compound>
COC(=O)C(Cc1ccccc1)NC(=O)C(Cc1c[nH]c2ccccc12)NC(=O)C(OC)C1Cc2cc3cc(OC4CC(OC5CC(O)C(O)C(C)O5)C(O)C(C)O4)c(C)c(O)c3c(O)c2C(=O)C1OC1CC(OC2CC(OC3CC(C)(O)C(O)C(C)O3)C(O)C(C)O2)C(O)C(C)O1 (stereo not shown)

>  <readout_type>
GI50 ratio PC-3:TC-32

>  <quantitative_result>
2.0

$$$$
>  <compound>
COC(=O)C(Cc1c[nH]c2ccc([N+](=O)[O-])cc12)NC(=O)C(OC)C1Cc2cc3cc(OC4CC(OC5CC(O)C(O)C(C)O5)C(O)C(C)O4)c(C)c(O)c3c(O)c2C(=O)C1OC1CC(OC2CC(OC3CC(C)(O)C(O)C(C)O3)C(O)C(C)O2)C(O)C(C)O1 (stereo not shown)

>  <readout_type>
GI50 ratio PC-3:TC-32

>  <quantitative_result>
1.8

$$$$
>  <compound>
COC(=O)C(Cc1c[nH]c2ccccc12)NC(=O)C(OC)C1Cc2cc3cc(OC4CC(OC5CC(O)C(O)C(C)O5)C(O)C(C)O4)c(C)c(O)c3c(O)c2C(=O)C1OC1CC(OC2CC(OC3CC(C)(O)C(O)C(C)O3)C(O)C(C)O2)C(O)C(C)O1 (stereo not shown) [MTMSA-Trp (3), Mithramycin SA-Tryptophan, reference compound]

>  <readout_type>
GI50 ratio PC-3:TC-32

>  <quantitative_result>
4.8

$$$$
>  <compound>
C=CCOc1ccc2[nH]cc(CC(NC(=O)C(OC)C3Cc4cc5cc(OC6CC(OC7CC(O)C(O)C(C)O7)C(O)C(C)O6)c(C)c(O)c5c(O)c4C(=O)C3OC3CC(OC4CC(OC5CC(C)(O)C(O)C(C)O5)C(O)C(C)O4)C(O)C(C)O3)C(=O)OC)c2c1 (stereo not shown)

>  <readout_type>
GI50 ratio PC-3:TC-32

>  <quantitative_result>
8.6

$$$$
>  <compound>
COC(=O)C(Cc1c[nH]c2ccccc12)NC(=O)C(Cc1c[nH]c2ccccc12)NC(=O)C(OC)C1Cc2cc3cc(OC4CC(OC5CC(O)C(O)C(C)O5)C(O)C(C)O4)c(C)c(O)c3c(O)c2C(=O)C1OC1CC(OC2CC(OC3CC(C)(O)C(O)C(C)O3)C(O)C(C)O2)C(O)C(C)O1 (stereo not shown)

>  <readout_type>
GI50 ratio PC-3:TC-32

>  <quantitative_result>
13.9

$$$$
>  <compound>
COC(=O)C(Cc1c[nH]c2cc(C(F)(F)F)ccc12)NC(=O)C(OC)C1Cc2cc3cc(OC4CC(OC5CC(O)C(O)C(C)O5)C(O)C(C)O4)c(C)c(O)c3c(O)c2C(=O)C1OC1CC(OC2CC(OC3CC(C)(O)C(O)C(C)O3)C(O)C(C)O2)C(O)C(C)O1 (stereo not shown)

>  <readout_type>
GI50 ratio PC-3:TC-32

>  <quantitative_result>
1.0

$$$$
